Source: PubChem BioAssay AID2060495

system: 521955-158-R2-J5-PDC complex spheroid viability; experiment: Anticancer human tumor 521955-158-R2-J5-PDC patient-derived pancreatic carcinoma cell line growth inhibition [GQUAD]; conditions: second compound 0.1 µM; first compound 1 µM; hits give low values
Record form. Attribute: viability, T/C. Fill in for each entry.
Give bare numbers, in %.

Check out these entries, answers already filled in.
Molecule	Readout Name	Test Result
Nc1ccn(C2OC(CO)C(O)C2(F)F)c(=O)n1 (stereo not given) + Cc1cnc(CNC(=O)c2c(=O)c3ccc(N4CCCN(C)CC4)nc3n3c2sc2ccccc23)cn1	viability, T/C	20.9
O=c1[nH]cc(F)c(=O)[nH]1 + Cc1cnc(CNC(=O)c2c(=O)c3ccc(N4CCCN(C)CC4)nc3n3c2sc2ccccc23)cn1	viability, T/C	62.2
COc1ccc([C@@H](O)c2cc(-c3ncnc4cc(N5CCOCC5)ccc34)c(F)cc2Cl)nn1 + Cc1[nH]c2ccc(F)cc2c1-c1nc2c3cccnc3c3ncccc3c2[nH]1	viability, T/C	66.7
COc1cccc2c1C(=O)c1c(O)c3c(c(O)c1C2=O)CC(O)(C(=O)CO)CC3OC1CC(N)C(O)C(C)O1 (stereo not given) + Cc1cnc(CNC(=O)c2c(=O)c3ccc(N4CCCN(C)CC4)nc3n3c2sc2ccccc23)cn1	viability, T/C	10.6

Input line: Find the measured viability, T/C of COc1cccc2c1C(=O)c1c(O)c3c(c(O)c1C2=O)CC(O)(C(=O)CO)CC3OC1CC(N)C(O)C(C)O1 (stereo not given) + CN(C)c1ccc(Nc2c3ccc(NC(=O)CCN4CCCC4)cc3nc3cc(NC(=O)CCN4CCCC4)ccc23)cc1 and report it.
Output line: 29.9

###

tested on: 521955-158-R2-J5-PDC complex spheroid viability; assay: Anticancer human tumor 521955-158-R2-J5-PDC cell line growth inhibition [GQUAD]; settings: second compound 3.16 µM; first compound 10 µM; hits give low values;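 also: spheroids exposed to agents for one week before reading; 100% = DMSO vehicle control viability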
Values of viability, T/C strictly less than 20% map to criterion met, and values of at least 20% map to criterion not met.

Molecule	Discrete Label
COc1ccc([C@@H](O)c2cc(-c3ncnc4cc(N5CCOCC5)ccc34)c(F)cc2Cl)nn1 + Cc1[nH]c2ccc(F)cc2c1-c1nc2c3cccnc3c3ncccc3c2[nH]1	criterion not met
CC(=O)O[C@H]1C(=O)[C@@]2(C)[C@H]([C@H](OC(=O)c3ccccc3)[C@]3(O)C[C@H](OC(=O)[C@H](O)[C@@H](NC(=O)c4ccccc4)c4ccccc4)C(C)=C1C3(C)C)[C@]1(OC(C)=O)CO[C@@H]1C[C@@H]2O + CN(C)c1ccc(Nc2c3ccc(NC(=O)CCN4CCCC4)cc3nc3cc(NC(=O)CCN4CCCC4)ccc23)cc1	criterion not met
CC(C)n1c(=O)n(C)c2cnc3cc(F)c(-c4ccc(OCCCN5CCCCC5)nc4)cc3c21 + Cc1[nH]c2ccc(F)cc2c1-c1nc2c3cccnc3c3ncccc3c2[nH]1	criterion not met
Nc1ccn(C2OC(CO)C(O)C2(F)F)c(=O)n1 (stereo unspecified) + CN(C)c1ccc(Nc2c3ccc(NC(=O)CCN4CCCC4)cc3nc3cc(NC(=O)CCN4CCCC4)ccc23)cc1	criterion met
C=CCn1c(=O)c2cnc(Nc3ccc(N4CCN(C)CC4)cc3)nc2n1-c1cccc(C(C)(C)O)n1 + CN(C)c1ccc(Nc2c3ccc(NC(=O)CCN4CCCC4)cc3nc3cc(NC(=O)CCN4CCCC4)ccc23)cc1	criterion met

Input line: Is viability, T/C of O=C(NO)c1cnc(N2CCN(S(=O)(=O)c3ccc4ccccc4c3)CC2)nc1 + CN(C)c1ccc(Nc2c3ccc(NC(=O)CCN4CCCC4)cc3nc3cc(NC(=O)CCN4CCCC4)ccc23)cc1 strictly below 20%?
Output line: criterion met

Input line: Is viability, T/C of CC1COCCN1c1cc(C2(O)CC3CCC(C2)O3)c2cnn(-c3ccn[nH]3)c2n1 (stereo unspecified) + Cc1[nH]c2ccc(F)cc2c1-c1nc2c3cccnc3c3ncccc3c2[nH]1 strictly below 20%?
Output line: criterion met

Input line: Is viability, T/C of CC1COCCN1c1cc(-c2ccnn2C)c2ccnc(-c3ccn[nH]3)c2n1 (stereo unspecified) + CN(C)c1ccc(Nc2c3ccc(NC(=O)CCN4CCCC4)cc3nc3cc(NC(=O)CCN4CCCC4)ccc23)cc1 strictly below 20%?
Output line: criterion not met

###

Record form. Attribute: viability, T/C. Fill in for each entry.
system: 521955-158-R2-J5-PDC complex spheroid viability; experiment: Anticancer human tumor 521955-158-R2-J5-PDC cell line growth inhibition [GQUAD]; settings: second compound 10 µM; first compound 0.1 µM; hits give low values;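 also: spheroids exposed to agents for one week before reading; 100% = DMSO vehicle control viability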
Numbers only, in %.

Check out these entries, answers already filled in.
Compound	viability, T/C / %
CC1COCCN1c1cc(C2(S(C)(=N)=O)CC2)nc(-c2ccnc3[nH]ccc23)n1 (stereo not given) + CN(C)c1ccc(Nc2c3ccc(NC(=O)CCN4CCCC4)cc3nc3cc(NC(=O)CCN4CCCC4)ccc23)cc1	76.7
C=CC(=O)N1CCN(c2nc(=O)n(-c3c(C)ccnc3C(C)C)c3nc(-c4c(O)cccc4F)c(F)cc23)C(C)C1 (stereo not given) + CN(C)c1ccc(Nc2c3ccc(NC(=O)CCN4CCCC4)cc3nc3cc(NC(=O)CCN4CCCC4)ccc23)cc1	72.8

Quick one: give me viability, T/C for each item below, same order please.
1. COc1ccc([C@@H](O)c2cc(-c3ncnc4cc(N5CCOCC5)ccc34)c(F)cc2Cl)nn1 + Cc1cnc(CNC(=O)c2c(=O)c3ccc(N4CCCN(C)CC4)nc3n3c2sc2ccccc23)cn1
2. O=C(c1cc(Cc2n[nH]c(=O)c3ccccc23)ccc1F)N1CCN(C(=O)C2CC2)CC1 + Cc1cnc(CNC(=O)c2c(=O)c3ccc(N4CCCN(C)CC4)nc3n3c2sc2ccccc23)cn1
3. COc1ncnc(C2CC2)c1-c1ncc2cnn(Cc3ccc(-c4nc(C(F)(F)F)cn4C(C)C)cc3)c2n1 + CN(C)c1ccc(Nc2c3ccc(NC(=O)CCN4CCCC4)cc3nc3cc(NC(=O)CCN4CCCC4)ccc23)cc1
4. O=C(NO)c1cnc(N2CCN(S(=O)(=O)c3ccc4ccccc4c3)CC2)nc1 + Cc1cnc(CNC(=O)c2c(=O)c3ccc(N4CCCN(C)CC4)nc3n3c2sc2ccccc23)cn1

Output line:
18.6
18.9
74.7
8.03

Quick one: give me viability, T/C for each item below, same order please.
1. COc1ccc([C@@H](O)c2cc(-c3ncnc4cc(N5CCOCC5)ccc34)c(F)cc2Cl)nn1 + Cc1[nH]c2ccc(F)cc2c1-c1nc2c3cccnc3c3ncccc3c2[nH]1
2. Nc1ccn(C2OC(CO)C(O)C2(F)F)c(=O)n1 (stereo not given) + Cc1[nH]c2ccc(F)cc2c1-c1nc2c3cccnc3c3ncccc3c2[nH]1
3. C=CC(=O)N1CCN(c2nc(=O)n(-c3c(C)ccnc3C(C)C)c3nc(-c4c(O)cccc4F)c(F)cc23)C(C)C1 (stereo not given) + Cc1[nH]c2ccc(F)cc2c1-c1nc2c3cccnc3c3ncccc3c2[nH]1

Output line:
1. 88.6
2. 104
3. 98.3

Input line: Find the measured viability, T/C of CC(=O)O[C@H]1C(=O)[C@@]2(C)[C@H]([C@H](OC(=O)c3ccccc3)[C@]3(O)C[C@H](OC(=O)[C@H](O)[C@@H](NC(=O)c4ccccc4)c4ccccc4)C(C)=C1C3(C)C)[C@]1(OC(C)=O)CO[C@@H]1C[C@@H]2O + CN(C)c1ccc(Nc2c3ccc(NC(=O)CCN4CCCC4)cc3nc3cc(NC(=O)CCN4CCCC4)ccc23)cc1 and report it.
Output line: 35.2

###

tested on: 521955-158-R2-J5-PDC complex spheroid viability; assay: Anticancer human tumor 521955-158-R2-J5-PDC cell line growth inhibition [GQUAD]; details: second compound 3.16 µM; first compound 10 µM; hits give low values;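 also: spheroids exposed to agents for one week before reading; 100% = DMSO vehicle control viability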
Values of viability, T/C strictly less than 20% map to rule met, and values of at least 20% map to rule not met.

Input line: Is viability, T/C of Cc1cccc(N(C)C(=O)C2C(O)CCN2c2nc(C)cc(C(F)(F)F)c2C#N)c1 (stereo not given) + CN(C)c1ccc(Nc2c3ccc(NC(=O)CCN4CCCC4)cc3nc3cc(NC(=O)CCN4CCCC4)ccc23)cc1 strictly below 20%?
Output line: rule not met

Input line: Is viability, T/C of CC1COCCN1c1cc(C2(S(C)(=N)=O)CC2)nc(-c2ccnc3[nH]ccc23)n1 (stereo not given) + Cc1cnc(CNC(=O)c2c(=O)c3ccc(N4CCCN(C)CC4)nc3n3c2sc2ccccc23)cn1 strictly below 20%?
Output line: rule met

Input line: Is viability, T/C of O=C(c1cc(Cc2n[nH]c(=O)c3ccccc23)ccc1F)N1CCN(C(=O)C2CC2)CC1 + CN(C)c1ccc(Nc2c3ccc(NC(=O)CCN4CCCC4)cc3nc3cc(NC(=O)CCN4CCCC4)ccc23)cc1 strictly below 20%?
Output line: rule not met

Input line: Is viability, T/C of CC(C)(O)C1CCC(Nc2ccc3ncc(-c4cccc(C(F)(F)F)c4)n3n2)CC1 (stereo not given) + Cc1[nH]c2ccc(F)cc2c1-c1nc2c3cccnc3c3ncccc3c2[nH]1 strictly below 20%?
Output line: rule met

Input line: Is viability, T/C of C=CC(=O)N1CCN(c2nc(=O)n(-c3c(C)ccnc3C(C)C)c3nc(-c4c(O)cccc4F)c(F)cc23)C(C)C1 (stereo not given) + Cc1cnc(CNC(=O)c2c(=O)c3ccc(N4CCCN(C)CC4)nc3n3c2sc2ccccc23)cn1 strictly below 20%?
Output line: rule met
